# Read-out: Tumor necrosis factor (Homo sapiens) (UniProt P01375)
# Sequence (P01375 whole entry, looked up): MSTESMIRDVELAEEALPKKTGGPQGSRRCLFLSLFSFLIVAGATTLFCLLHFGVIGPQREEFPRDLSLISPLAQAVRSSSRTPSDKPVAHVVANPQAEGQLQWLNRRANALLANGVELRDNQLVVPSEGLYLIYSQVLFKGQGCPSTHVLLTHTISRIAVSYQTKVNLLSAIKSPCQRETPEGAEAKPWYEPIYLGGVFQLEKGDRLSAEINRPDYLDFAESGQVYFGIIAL
# measurement.notes: BSK_BT_xTNFa: BioMAP Diversity Plus: BT Assay for Tumor necrosis factor alpha (TNF-alpha) Biomarker Activity (AID 2284230)
# study.conditions: primary human B cells with PBMC
# Protocol: BSK_BT is a cell-based, multiplexed-readout assay that uses B cell and peripheral blood mononuclear cells, a human vascular primary cell co-culture, with measurements taken at 24 hours after chemical dosing in a microplate: 96-well plate.BSK_BT_xTNFa is an assay component of the BSK_BT assay. […] Using a type of cytokine quantitation reporter, gain or loss-of-signal activity can be used to understand protein changes. […]
Active and inactive are the calls of the source. Rule for the calls: active = hit-call score of the fitted dose curve at least 0.9, where 1 is the maximum; inactive = score below 0.9.
Can you answer with just one of these options? active, inactive

A selection of reference data follows.
input: Which result was noted for this compound in the test: `C=CC=CC=CCCCCC`
output: inactive

input: Give the logged outcome of this assay for the following compound: `O=C(Cl)c1cc(C(=O)Cl)cc(C(=O)Cl)c1`
output: active

Next:
input: What classification did `O=Nc1ccc(O)cc1` end up with in this test?
output: inactive

input: What was the test verdict on `C=CCOc1c(Br)cc(Br)cc1Br` ?
output: inactive

---

# assay.system: Hypoxia-inducible factor 1-alpha (Homo sapiens)
# measurement.notes: ATG_HIF1a_CIS: Attagene CIS-FACTORIAL HepG2 Assay for human Hypoxia Inducible Factor 1 (HIF1A) (AID 2282951)
# study.conditions: HepG2 Attagene cis-factorial HIF1a reporter transcription; actives raise or lower the signal
Active and inactive are the calls of the source. How the source made its calls: active means hit-call score of the fitted dose curve at least 0.9, where 1 is the maximum; inactive means score below 0.9.
experimental.readout: outcome

Below, each entry is followed by its recorded outcome result.
input: GET /values?readout=outcome&item= `Cc1ccc(N/N=c2\c(=O)cc/c(=N/Nc3ccc(S(=O)(=O)O)cc3)c2=O)c(C)c1`
output: inactive

input: Look up outcome: `NC(=O)N=NC(N)=O`
output: inactive

input: Dear colleague, I am looking for the recorded outcome of the following molecule: `COC(=O)c1ccccc1OC`
output: inactive

input: Return reported outcome; argument: `CCCCCC/C=C\CCCCCCCC(=O)O`
output: inactive

input: Which outcome is reported for this molecule? `Nc1ccc(Cl)cc1Cl`
output: inactive

// batch mode: one outcome value per listed entry
1. CCOc1ccc(N)c([N+](=O)[O-])c1
2. CCCCOCCOC(=O)COc1nc(Cl)c(Cl)cc1Cl

output:
1. inactive
2. inactive

---

# assay.system: Aryl hydrocarbon receptor (Homo sapiens)
# measurement.notes: ATG_Ahr_CIS: Attagene CIS-FACTORIAL HepG2 Assay for human Aryl Hydrocarbon Receptor (Ahr) (AID 2282930)
# study.conditions: HepG2 AhR cis-factorial reporter transcription; actives raise or lower the signal
Calls of active or inactive are those of the source. The calls were made as follows: active = hit-call score of the fitted dose curve at least 0.9, where 1 is the maximum; inactive = score below 0.9.
Thanks in advance; please answer with one of these: true for active, false for inactive

Example cases with answers are listed next.
input: What did the test return for `Nc1ccc(N=Nc2ccccc2)c(N)n1` ?
output: true

input: What is the recorded call for this compound in the test? `OC1CCCC1`
output: false

input: Recorded test outcome, item `CCCCCCCC[N+](C)(CCCCCCCC)CCCCCCCC`
output: false

Please examine the following record next.
input: Any idea what this test logged for `CCCCNc1ccc(NCCCC)c2c1C(=O)c1ccccc1C2=O` ?
output: false

---

# assay.system: Heat shock factor protein 1 (Homo sapiens) (UniProt Q00613)
# Sequence (Q00613 whole entry, looked up): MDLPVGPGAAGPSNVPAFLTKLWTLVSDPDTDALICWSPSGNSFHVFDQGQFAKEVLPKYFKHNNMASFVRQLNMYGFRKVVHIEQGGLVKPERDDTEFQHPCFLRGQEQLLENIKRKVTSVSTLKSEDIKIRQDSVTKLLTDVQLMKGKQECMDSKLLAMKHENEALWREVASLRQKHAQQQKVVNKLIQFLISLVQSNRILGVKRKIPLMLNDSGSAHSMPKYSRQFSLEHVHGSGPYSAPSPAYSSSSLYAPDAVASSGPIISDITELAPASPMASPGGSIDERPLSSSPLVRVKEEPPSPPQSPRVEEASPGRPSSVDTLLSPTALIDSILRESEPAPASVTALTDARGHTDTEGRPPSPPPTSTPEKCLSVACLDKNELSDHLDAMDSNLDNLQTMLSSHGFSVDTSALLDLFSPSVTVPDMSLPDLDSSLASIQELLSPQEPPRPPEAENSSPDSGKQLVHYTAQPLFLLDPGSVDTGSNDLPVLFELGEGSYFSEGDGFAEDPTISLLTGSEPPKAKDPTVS
# measurement.notes: ATG_HSE_CIS: Attagene CIS-FACTORIAL HepG2 Assay for human Heat Shock Transcription Factor 1 (HSE) (AID 2282953)
# study.conditions: HepG2 HSE cis-reporter, Attagene RNA transcription; actives raise or lower the signal
Active and inactive are the calls of the source. Rule for the calls: active = hit-call score of the fitted dose curve at least 0.9, where 1 is the maximum; inactive = score below 0.9.
Select the correct class. Options are active, inactive and nothing else.

Use these answered entries as a reference point.
input: Assay result, entry `CC(C)C1=CC2=CC[C@@H]3[C@](C)(CCC[C@@]3(C)C(=O)O)[C@H]2CC1` — outcome?
output: active

input: Recorded test outcome, item `O=C(O)c1cc(Cl)cc([N+](=O)[O-])c1Cl`
output: inactive

input: // param item: `O=S(=O)(O)c1cc(S(=O)(=O)O)c2ccc3c(S(=O)(=O)O)cc(S(=O)(=O)O)c4ccc1c2c43` ; yields the recorded call
output: inactive

input: Assay result, entry `O=C(c1ccc(O)cc1)c1ccc(O)cc1O` — outcome?
output: inactive

input: For this molecule, state the assay outcome: `CC(C)(C)c1ccc(OC(=O)c2ccccc2O)cc1`
output: inactive

Others:
input: Short answer needed: outcome of this test for `Nc1cccc(C(F)(F)F)c1` ?
output: inactive

input: Which result was noted for this molecule in the test: `CCOC(=O)N1CCC(=C2c3ccc(Cl)cc3CCc3cccnc32)CC1`
output: inactive

input: // return assay outcome for `CC(=O)OCc1ccco1`
output: inactive

input: Could you check what this test reported for `O=C1OC(=O)c2cc(Oc3ccc4c(c3)C(=O)OC4=O)ccc21` ?
output: inactive
